- System: spores of ATCC BBA1870 strain
- PROCEDURE SUMMARY: Inhibition of germination of C. difficile spores (MIC), strain ATCC BBA1870
- Format: cell-based
- MEASUREMENT SETUP: Clostridioides difficile, ATCCBBA1870STRAIN, 1 h; strain 1870; sodium taurocholate as germinant, BHIS medium, 37° C., OD580 for 60 min; read-out: MIC (minimum concentration that completely inhibits spore germination)
Below, each entry is listed with its recorded log10 MIC.
Recorded MIC (log10, µM)

Past entries and their recorded results:
CC(C)[C@@H](NC(=O)C[C@@H](C)[C@H]1CC[C@H]2[C@@H]3[C@H](OP(=O)(O)O)C[C@@H]4CC(=O)CC[C@]4(C)[C@H]3CC[C@]12C)c1ccc(Br)s1: 1.81
C[C@H](CC(=O)NCc1cccs1)[C@H]1CC[C@H]2[C@@H]3C(=O)C[C@@H]4C[C@H](O)CC[C@]4(C)[C@H]3CC[C@]12C: 0.60
CCC(NC(=O)C[C@@H](C)[C@H]1CC[C@H]2[C@@H]3[C@H](OS(=O)(=O)O)C[C@@H]4CC(=O)CC[C@]4(C)[C@H]3CC[C@]12C)c1ccc(Br)s1 (stereo partly shown): 0.00
Cc1ccc(C(C)NC(=O)C[C@@H](C)[C@H]2CC[C@H]3[C@@H]4C(=O)C[C@@H]5CC(=O)CC[C@]5(C)[C@H]4CC[C@]23C)s1 (stereo partly shown): 0.30
CC[C@@H](NC(=O)C[C@@H](C)[C@H]1CC[C@H]2[C@@H]3C(=O)C[C@@H]4C[C@H](O)CC[C@]4(C)[C@H]3CC[C@]12C)c1ccc(Cl)s1: 0.30
CC(C)[C@@H](NC(=O)C[C@@H](C)[C@H]1CC[C@H]2[C@@H]3[C@H](OS(=O)(=O)O)C[C@@H]4CC(=O)CC[C@]4(C)[C@H]3CC[C@]12C)c1ccc(Br)s1: -0.30
CC(NC(=O)C[C@@H](C)[C@H]1CC[C@H]2[C@@H]3[C@H](O)C[C@@H]4C[C@H](O)CC[C@]4(C)[C@H]3CC[C@]12C)c1cccs1 (stereo partly shown): 0.60
CC(C)[C@@H](NC(=O)C[C@@H](C)[C@H]1CC[C@H]2[C@@H]3[C@H](O)C[C@@H]4CC(=O)CC[C@]4(C)[C@H]3CC[C@]12C)c1cccs1: 0.00
CC[C@H](NC(=O)C[C@@H](C)[C@H]1CC[C@H]2[C@@H]3[C@H](O)C[C@@H]4CC(=O)CC[C@]4(C)[C@H]3CC[C@]12C)c1ccc(Cl)s1: 2.41

Below: the item to evaluate.
Sample CC(C)[C@@H](NC(=O)C[C@@H](C)[C@H]1CC[C@H]2[C@@H]3C(=O)C[C@@H]4CC(=O)CC[C@]4(C)[C@H]3CC[C@]12C)c1ccc(C=O)s1 ; log10 MIC observed: 1.51

----------
- System: spores of ATCC BBA1870 strain
- PROCEDURE SUMMARY: Inhibition of germination of C. difficile spores (MIC), strain ATCC BBA1870
- Assay type: cell-based
- MEASUREMENT SETUP: Clostridioides difficile, ATCCBBA1870STRAIN, 1 h; strain 1870; sodium taurocholate as germinant, BHIS medium, 37° C., OD580 for 60 min; read-out: MIC (minimum concentration that completely inhibits spore germination)
MEASURE: MIC (µM)
Provide only the numeric value, understood in µM.

Past entries and their recorded results:
CC(C)C(NC(=O)C[C@@H](C)[C@H]1CC[C@H]2[C@@H]3C[C@H](O)[C@@H]4CC(=O)CC[C@]4(C)[C@H]3CC[C@]12C)c1ccc(Br)s1 (stereo partly drawn) [Compound I-130]: 4
CC[C@@H](NC(=O)C[C@@H](C)[C@H]1CC[C@H]2[C@@H]3[C@H](O)C[C@@H]4CC(=O)CC[C@]4(C)[C@H]3C[C@H](O)[C@]12C)c1ccc(Br)s1 [Compound I-165]: 64
CC[C@@H](NC(=O)C[C@@H](C)[C@H]1CC[C@H]2[C@@H]3[C@H](OS(=O)(=O)O)C[C@@H]4CC(=O)CC[C@]4(C)[C@H]3CC[C@]12C)c1ccc(Cl)s1 [Compound I-106]: 0.5

Sample CC[C@@H](NC(=O)C[C@@H](C)[C@H]1CC[C@H]2[C@@H]3[C@H](OC(C)=O)C[C@@H]4CC(=O)CC[C@]4(C)[C@H]3CC[C@]12C)c1ccc(Cl)s1 [Compound I-175] ; MIC observed: 1

Sample CC(C)[C@@H](NC(=O)C[C@@H](C)[C@H]1CC[C@H]2[C@@H]3[C@H](OC(=O)CCC(=O)O)C[C@@H]4CC(=O)CC[C@]4(C)[C@H]3CC[C@]12C)c1ccc(Br)s1 [Compound I-182] ; MIC observed: 2

Sample CC(C)[C@@H](NC(=O)C[C@@H](C)[C@H]1CC[C@H]2[C@@H]3C(=O)C[C@@H]4CC(=O)CC[C@]4(C)[C@H]3CC[C@]12C)c1ccc(S(=O)(=O)O)s1 [Compound I-83] ; MIC observed: 16

Sample CC(C)[C@H](NC(=O)C[C@@H](C)[C@H]1CC[C@H]2[C@@H]3C(=O)C[C@@H]4CC(=O)CC[C@]4(C)[C@H]3CC[C@]12C)c1ccc(Br)s1 [Compound I-79] ; MIC observed: 8

Sample C[C@H](CC(=O)NC(c1ccccc1)c1ccccc1)[C@H]1CC[C@H]2[C@@H]3C(=O)C[C@@H]4CC(=O)CC[C@]4(C)[C@H]3CC[C@]12C [Compound I-61] ; MIC observed: 128

Sample CC(NC(=O)C[C@@H](C)[C@H]1CC[C@H]2[C@@H]3C(=O)C[C@@H]4CC(=O)CC[C@]4(C)[C@H]3CC[C@]12C)c1ccc(Cl)s1 (stereo partly drawn) [Compound I-32] ; MIC observed: 0.5

Values were extracted from patent US20230135729A1.
